Biological target: T1, 4H607-bN
T1 chain: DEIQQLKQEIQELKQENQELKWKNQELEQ
Assay: two-hybrid library CCNG1;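 also: natural log of median RNA to DNA barcode read ratio; higher means stronger binding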
Mark each entry TRUE if its interaction score sits below -1, and FALSE for all others.

Use these answered entries as a reference point.
# Binder, Classification
records = [
    ("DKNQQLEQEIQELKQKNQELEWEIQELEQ [4H3185-bN]", "FALSE"),
    ("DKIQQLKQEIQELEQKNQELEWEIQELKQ [4H2610-bN]", "FALSE"),
    ("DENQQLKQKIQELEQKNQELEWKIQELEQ [4H1845-bN]", "TRUE"),
    ("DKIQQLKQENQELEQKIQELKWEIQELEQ [4H2729-bN]", "TRUE"),
    ("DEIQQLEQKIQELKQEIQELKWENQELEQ [4H331-bN]", "TRUE"),
]

Task item: Lab log: compare recorded interaction score with -1; is it strictly lower for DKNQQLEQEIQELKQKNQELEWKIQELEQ [4H3189-bN] ?
Reply: TRUE

Task item: Is the reported interaction score for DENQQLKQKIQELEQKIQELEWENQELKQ [4H1828-bN] strictly below -1?
Reply: FALSE

Task item: I'd appreciate it if you could check whether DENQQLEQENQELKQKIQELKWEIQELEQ [4H1257-bN] has interaction score smaller than -1.
Reply: FALSE

Task item: Please state whether interaction score is below -1 for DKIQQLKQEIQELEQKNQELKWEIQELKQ [4H2618-bN]
Reply: FALSE

Task item: Regarding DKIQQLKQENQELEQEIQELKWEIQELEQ [4H2697-bN] , kindly confirm whether its interaction score is beneath -1.
Reply: TRUE

Task item: Is interaction score of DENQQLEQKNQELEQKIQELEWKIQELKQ [4H1446-bN] strictly below -1?
Reply: FALSE

Task item: Answer whether the binder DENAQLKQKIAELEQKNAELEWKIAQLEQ [4H1845-bA] has interaction score strictly less than -1
Reply: FALSE

Task item: State whether -1 exceeds interaction score recorded for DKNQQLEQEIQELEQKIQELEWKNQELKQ [4H3112-bN] .
Reply: FALSE

Task item: Dear colleague, could you confirm whether interaction score of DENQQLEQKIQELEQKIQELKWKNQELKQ [4H1328-bN] falls below -1? Thanks.
Reply: FALSE

Task item: Does this binder meet the criterion interaction score < -1? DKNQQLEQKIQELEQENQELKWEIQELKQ [4H3354-bN]
Reply: FALSE

Task item: Please indicate whether the reported interaction score of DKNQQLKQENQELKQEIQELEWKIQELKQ [4H3782-bN] is strictly below -1.
Reply: FALSE

Task item: Check if interaction score falls below -1 for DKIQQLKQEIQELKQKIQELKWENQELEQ [4H2667-bN] .
Reply: TRUE

Task item: Lab note: interaction score threshold -1. Does this binder come in strictly under it? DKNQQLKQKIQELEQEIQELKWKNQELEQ [4H3855-bN]
Reply: FALSE

Task item: Field: below-cutoff. Rule: recorded interaction score strictly less than -1. Subject: DEIQQLKQEIQELKQENQELKWKNQELEQ [4H607-bN]
Reply: FALSE

FYI, the data here is from paper PMC10397247.
